All values here come from PubChem BioAssay (NCI).

test system: MDA-MB-231 breast; assay: NCI-60 one-dose screen, 48 h (100 = growth as untreated, 0 = no growth, -100 = all killed); conditions: 10 µM unless noted
This is part of a sample that, as a whole, favours compounds with a hit. Of some 83,000 tested, about 20% had one in any assay.
Okay, here is how we bin by growth: low-valued (below 50%), mid-valued (50% to below 80%), high-valued (80% or more)

// below: answered compounds
Compound	Assigned Category
CCNCCNc1cc(C2CCCCC2)c(C#N)c2nc3ccccc3n12	low-valued
Cn1cc(-c2csc(-c3c[nH]c4ccc(Br)cc34)n2)c2ccnc(Cl)c21	mid-valued

Please examine the following record next.
Asked: For this compound, which bin applies? `Nc1nc(-c2ccc(Cl)cc2)nc2c1sc(=S)n2-c1ccccc1`
Given back: low-valued

###

test system: OVCAR-8 ovarian; test: NCI-60 one-dose screen, 48 h; settings: 10 µM unless noted
About 83,000 compounds went through this panel and 20% of them were active in at least one assay; those are over-represented in the sample as a whole. Calls of active or inactive are those of the source. How the source made its calls: active means growth percent below 10; inactive means the rest.
Your response should consist of one outcome taken from true (active), false (inactive)

// below: answered molecules
Molecule	Assigned Category
COc1ccc(C2=C(Nc3ccc(C(=O)Nc4ccccc4)cc3)C(=O)N(C)C2=O)cc1	false
CC(C)c1ccc(Cc2cnc(NC(=O)c3cc(Br)cs3)s2)cc1	false
O=c1[nH]c(-c2ccccc2)nc2sc3cc(O)ccc3c12	false
CCOC(=O)NC(C)C	false
CSc1nc2ccccc2cc1/C=[N+](\[O-])c1ccccc1	false
COC(CC(F)F)c1cn(S(=O)(=O)c2ccc(C)cc2)c2ccccc12 (configuration not stated)	false
Cc1ccc(-c2nc(N3CCCNCC3)c3oc(-c4ccccc4)nc3n2)cc1	true
Cc1ccc(Nn2c(SCC(=O)Nc3nc(-c4ccccc4)cs3)nc(C)c2C)cc1	false

Asked: Dear all, I need the recorded test outcome for `O=c1c2cnn(-c3ccccc3)c2n2c(CN3CCOCC3)nnc2n1-c1ccccc1` , thank you.
Given back: false

Asked: Dear all, I need the recorded test outcome for `CCSc1nc2scc(C)c2c(=O)[nH]1` , thank you.
Given back: false

Asked: Dear all, I need the recorded test outcome for COc1ccc(C2=Nc3c(N)nc(N)nc3NC(c3cccc(Nc4ccnc5cc(C(F)(F)F)ccc45)c3)C2)cc1 (configuration not stated) , thank you.
Given back: false

Asked: Dear all, I need the recorded test outcome for `Cc1csc(Nc2nc(-c3ccccn3)nc(C(Cl)(Cl)Cl)n2)n1` , thank you.
Given back: false

Asked: Dear all, I need the recorded test outcome for `O=C(Cn1cc(CSc2nc3ccccc3o2)nn1)Nc1ccc(F)cc1F` , thank you.
Given back: false

Asked: Dear all, I need the recorded test outcome for `O=C(C[C@]1(O)C(=O)Nc2ccccc21)c1cccc(C(F)(F)F)c1` , thank you.
Given back: false

###

tested on: MDA-MB-435 melanoma; assay: NCI-60 one-dose screen, 48 h (100 = growth as untreated, 0 = no growth, -100 = all killed); details: 10 µM unless noted
About 83,000 compounds went through this panel and 20% of them were active in at least one assay; those are over-represented in the sample as a whole.
// NB: equality with 70% counts as label 0; only growth strictly below is label 1

Compound	Test Target	Assigned Category
CCN(CC)Cc1cc(C=C2C(=O)NC(=S)NC2=O)cc(OC)c1O	MDA-MB-435 melanoma	label 0
COc1ccc(C/C(C)=C(/c2ccc(OCCN(C)C)cc2)c2ccc(OC(=O)NCc3ccccc3)cc2)cc1	MDA-MB-435 melanoma	label 0
O=C(CN1CCCCC1)Nc1nc(-c2cc3ccccc3oc2=O)cs1	MDA-MB-435 melanoma	label 0
CC1=C2[C@@H](CC1)[C@]1(C)O[C@@](C(C)C)(C[C@H]1OC(=O)[C@H](C)O)[C@H]2OC(=O)/C=C/c1ccccc1	MDA-MB-435 melanoma	label 0
CCC(C)N(CCNc1cc(OC)cc2cccnc12)CC(C)C (configuration not stated)	MDA-MB-435 melanoma	label 0

Asked: Answer whether the compound `CCC1=C[C@@H]2C[C@]3(C(=O)OC)c4[nH]c5ccccc5c4CC[N@+](CC(=O)Nc4cc5c(cc4OC)N(C)[C@H]4[C@@](O)(C(=O)OC)[C@H](OC(C)=O)[C@]6(CC)C=CCN7CC[C@]54[C@@H]76)(C2)[C@H]13` has growth strictly less than 70%
Given back: label 0

Asked: Answer whether the compound `CC(C)=CCC[C@](C)(O)[C@H]1CC[C@]2(C)[C@@H]1CC[C@@H]1[C@@]3(C)C/C(=C/c4ccco4)C(=O)C(C)(C)[C@@H]3CC[C@]12C` has growth strictly less than 70%
Given back: label 0

Asked: Answer whether the compound `CCOC(=O)c1cc2c(n1C)-c1nc(NC(C)=O)sc1CCC2` has growth strictly less than 70%
Given back: label 0

Asked: Answer whether the compound C1CCC([PH+](C2CCCCC2)C2CCCCC2[PH+](C2CCCCC2)C2CCCCC2)CC1.[Au].[CH-]1CCCCC1C1CCCC[N-]1 (configuration not stated) has growth strictly less than 70%
Given back: label 1

Asked: Answer whether the compound COC(=O)CC[C@H](C)[C@H]1CC[C@H]2[C@@H]3CC[C@@H]4CC5(CC[C@]4(C)[C@H]3CC(=O)[C@]12C)Nc1ccccc1NC5=NC(C)(C)C (some centres not stated) has growth strictly less than 70%
Given back: label 0
